Protocol summary: Half life in Sprague-Dawley rat at 20 mg/kg, po measured after 2 to 26 hrs
Type: ADME, organism-based
Test settings: in vivo
Assay metric: half-life (h)
One number for each entry, in h.

- Query smiles: "COc1cc(OC)c2c(=O)cc(-c3cc(C)c(OC[C@H](O)CN4CCN(C)CC4)c(C)c3)oc2c1"
  Readout value: 2.8

Record COc1cc(OC)c2c(=O)cc(-c3cc(C)c(OC[C@H](O)CN4CCCCC4)c(C)c3)oc2c1 . Reported half-life: 2.4

* * *

Measured target: CYP2B6 (Homo sapiens, UniProt P20813)
Sequence (P20813 whole entry): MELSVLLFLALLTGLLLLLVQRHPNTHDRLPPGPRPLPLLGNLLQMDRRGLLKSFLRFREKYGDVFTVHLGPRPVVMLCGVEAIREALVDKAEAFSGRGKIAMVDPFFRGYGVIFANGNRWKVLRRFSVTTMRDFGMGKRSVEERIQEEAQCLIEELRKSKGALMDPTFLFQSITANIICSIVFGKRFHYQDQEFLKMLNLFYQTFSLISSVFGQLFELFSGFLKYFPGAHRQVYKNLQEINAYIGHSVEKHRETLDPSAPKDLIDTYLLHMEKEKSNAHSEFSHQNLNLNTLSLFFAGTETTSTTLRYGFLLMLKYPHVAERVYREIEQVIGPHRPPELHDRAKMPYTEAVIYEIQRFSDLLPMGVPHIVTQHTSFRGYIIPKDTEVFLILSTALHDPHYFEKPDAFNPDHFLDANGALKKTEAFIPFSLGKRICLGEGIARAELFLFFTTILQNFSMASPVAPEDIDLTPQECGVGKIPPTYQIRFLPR
Protocol summary: Inhibition of CYP2B6 (unknown origin) at 10 uM relative to control
Assay type: ADME
Assay metric: inhibition at 10 µM (%)
Numbers only, in %.

Record COc1cc(OC)c2c(=O)cc(-c3cc(C)c(OC[C@H](O)CN4CCN(C)CC4)c(C)c3)oc2c1 . Reported inhibition at 10 µM: 27

* * *

Measured target: CYP1A2 (Homo sapiens, UniProt P05177)
Sequence (P05177 whole entry): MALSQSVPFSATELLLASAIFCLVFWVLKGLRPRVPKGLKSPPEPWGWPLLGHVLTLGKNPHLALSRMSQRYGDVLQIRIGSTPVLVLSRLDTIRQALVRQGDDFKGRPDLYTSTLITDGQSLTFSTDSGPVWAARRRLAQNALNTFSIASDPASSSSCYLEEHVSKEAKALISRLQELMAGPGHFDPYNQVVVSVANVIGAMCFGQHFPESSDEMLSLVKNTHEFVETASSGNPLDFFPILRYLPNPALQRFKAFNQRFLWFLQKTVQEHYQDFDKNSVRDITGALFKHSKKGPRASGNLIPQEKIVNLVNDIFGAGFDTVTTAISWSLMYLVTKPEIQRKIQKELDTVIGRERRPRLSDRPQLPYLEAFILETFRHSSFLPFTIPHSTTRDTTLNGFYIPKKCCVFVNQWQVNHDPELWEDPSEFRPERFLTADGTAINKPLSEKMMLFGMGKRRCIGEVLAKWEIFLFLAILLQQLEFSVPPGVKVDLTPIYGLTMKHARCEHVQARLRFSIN
Protocol summary: Inhibition of CYP1A2 (unknown origin) at 10 uM relative to control
Assay type: ADME
Assay metric: inhibition at 10 µM (%)
Answers are plain numbers, in %.

Record COc1cc(OC)c2c(=O)cc(-c3cc(C)c(OC[C@H](O)CN4CCN(C)CC4)c(C)c3)oc2c1 . Reported inhibition at 10 µM: 0

* * *

Measured target: CYP2D6 (Homo sapiens)
Sequence (P10635 whole entry): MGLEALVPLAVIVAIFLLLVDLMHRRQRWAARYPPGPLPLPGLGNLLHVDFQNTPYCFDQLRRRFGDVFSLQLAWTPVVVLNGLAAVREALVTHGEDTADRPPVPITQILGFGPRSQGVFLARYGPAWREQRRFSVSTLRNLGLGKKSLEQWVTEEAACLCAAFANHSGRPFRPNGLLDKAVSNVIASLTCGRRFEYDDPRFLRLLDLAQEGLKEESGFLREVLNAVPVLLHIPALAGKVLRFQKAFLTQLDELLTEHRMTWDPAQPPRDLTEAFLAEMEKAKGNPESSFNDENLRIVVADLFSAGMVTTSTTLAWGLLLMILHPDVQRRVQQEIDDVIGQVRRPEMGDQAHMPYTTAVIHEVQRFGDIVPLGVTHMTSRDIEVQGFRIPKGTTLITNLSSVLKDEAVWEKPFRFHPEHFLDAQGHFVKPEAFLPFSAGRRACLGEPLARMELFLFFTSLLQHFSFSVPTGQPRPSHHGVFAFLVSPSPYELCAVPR
Protocol summary: Inhibition of CYP2D6 (unknown origin) at 10 uM relative to control
Type: ADME
Assay metric: inhibition at 10 µM (%)
Numbers only, in %.

Record COc1cc(OC)c2c(=O)cc(-c3cc(C)c(OC[C@H](O)CN4CCN(C)CC4)c(C)c3)oc2c1 . Reported inhibition at 10 µM: 0

* * *

Protocol summary: Total clearance in Sprague-Dawley rat at 10 mg/kg, iv measured after 2 to 26 hrs
Assay type: ADME, organism-based
Test settings: in vivo
Assignment: determine reported clearance for the given compounds.
One number for each entry, in mL/min/kg.

- Query smiles: "COc1cc(OC)c2c(=O)cc(-c3cc(C)c(OC[C@H](O)CN4CCN(C)CC4)c(C)c3)oc2c1"
  Unit: "mL/min/kg"
  clearance: 24.7

Record COc1cc(OC)c2c(=O)cc(-c3cc(C)c(OC[C@H](O)CN4CCCCC4)c(C)c3)oc2c1 . Reported clearance: 24.7
